# study-target: GTPγS-bound human HRasG12V / human c-Raf-1 Ras binding domain (RBD) (Homo sapiens (Human), UniProt P01112, G12V)
# Sequence (P01112 whole entry G12V, the tested form may be a part): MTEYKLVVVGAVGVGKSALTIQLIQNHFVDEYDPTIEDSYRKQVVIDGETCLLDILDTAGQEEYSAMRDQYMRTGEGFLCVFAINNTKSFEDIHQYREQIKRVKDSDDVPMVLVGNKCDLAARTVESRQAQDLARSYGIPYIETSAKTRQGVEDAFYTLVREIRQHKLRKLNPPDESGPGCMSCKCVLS
# test: Ras-Raf binding inhibition ELISA
measured-endpoint: inhibition at 1 µM (%)

Solved entries:
[[record]]
compound = "CC(=O)N1/C(=C\\c2cc(-c3ccc(C(=O)O)cc3)c3cc(C(=O)N4CCOCC4)ccc3n2)C(=O)c2ccccc21 [Example 174]"
measured_endpoint = "inhibition at 1 µM"
unit_of_measurement = "%"
value_measured = 70.1

[[record]]
compound = "CC(=O)N1/C(=C\\c2cc(-c3ccccc3-c3ccccc3)c3cc(CNC4CCOCC4)ccc3n2)C(=O)c2ccccc21 [Example 143]"
measured_endpoint = "inhibition at 1 µM"
unit_of_measurement = "%"
value_measured = 44.3

[[record]]
compound = "CC(=O)N1/C(=C\\c2cc(-c3ccc4ccccc4c3)c3cc(C(=O)N4CCN(C5COC5)CC4)ccc3n2)C(=O)c2ccccc21 [Example 163]"
measured_endpoint = "inhibition at 1 µM"
unit_of_measurement = "%"
value_measured = 63.8

[[record]]
compound = "CC(=O)N1/C(=C\\c2cc(-c3ccc4ccccc4c3)c3cc(CNC4CCOCC4)ccc3n2)C(=O)c2ccccc21 [Example 169]"
measured_endpoint = "inhibition at 1 µM"
unit_of_measurement = "%"
value_measured = 52.4

[[record]]
compound = "CC(=O)N1C(=Cc2cc(-c3ccc4c(c3)CCNC4=O)c3cc(C(=O)N4CCOCC4)ccc3n2)C(=O)c2ccccc21 (racemic) [Example 147]"
measured_endpoint = "inhibition at 1 µM"
unit_of_measurement = "%"
value_measured = 66.1


I. CC(=O)N1/C(=C\c2cc(-c3cccc4ccccc34)c3cc(C(=O)N4CCN(C5COC5)CC4)ccc3n2)C(=O)c2ccccc21 [Example 159]
II. CC(=O)N1/C(=C\c2cc(-c3ccccc3-c3ccccc3)c3cc(C(N)=O)ccc3n2)C(=O)c2ccccc21 [Example 141]
I or II : whose inhibition at 1 µM is greater? Reply with the label of the item you choose.
I
(I: 72.7%, II: 46.2%)

###

# System: large bowel cancer cell SW620 (K-RasG12V)
# test: Cell growth inhibition, adherent cells SW620
# Assay type: cell-based
# conditions-used: Homo sapiens, SW-620; 1 μM, 72 hours; read-out: SW620 (KRasG12V) % inhibition at 1 μM
measured-endpoint: inhibition at 1 µM (%)
Reply numerically in %, unit not repeated.

[[record]]
smiles_str = "COc1cc(/C=C2/C(=O)c3ccccc3N2C(C)=O)ccc1OCC(N)=O"
unit_of_measurement = "%"
value_measured = 53

[[record]]
smiles_str = "CCCCOc1cc(/C=C2/C(=O)c3ccccc3N2C(C)=O)nc2ccc(C(=O)N3CCOCC3)cc12"
unit_of_measurement = "%"
value_measured = 90


Now turn to the next molecule.
Quick one: give measured inhibition at 1 µM for CC(=O)N1/C(=C\c2cc(-c3ccccc3-c3ccccc3)c3cc(C(=O)N4CCOCC4)ccc3n2)C(=O)c2ccccc21
71

###

# study-target: GTPγS-bound human HRasG12V / human c-Raf-1 Ras binding domain (RBD) (Homo sapiens (Human), UniProt P01112, G12V)
# test: Ras-Raf binding inhibition ELISA
measured-endpoint: inhibition at 1 µM (%)

[[record]]
compound = "CC(=O)N1/C(=C\\c2cc(-c3cnccn3)c3cc(C(=O)N4CCOCC4)ccc3n2)C(=O)c2ccccc21 [Example 194]"
measured_endpoint = "inhibition at 1 µM"
value_measured = 55.4

[[record]]
compound = "CC(=O)N1CCc2cc(-c3cc(/C=C4/C(=O)c5ccccc5N4C(C)=O)nc4ccccc34)ccc2C1 [Example 187]"
measured_endpoint = "inhibition at 1 µM"
value_measured = 66.7

[[record]]
compound = "CC(=O)N1/C(=C\\c2cc(-c3cccnn3)c3cc(C(=O)N4CCOCC4)ccc3n2)C(=O)c2ccccc21 [Example 191]"
measured_endpoint = "inhibition at 1 µM"
value_measured = 49.2

[[record]]
compound = "CC(=O)N1/C(=C\\c2cc(-c3nc[nH]n3)c3cc(C(=O)N4CCOCC4)ccc3n2)C(=O)c2ccccc21 (racemic) [Example 212]"
measured_endpoint = "inhibition at 1 µM"
value_measured = 59.9

[[record]]
compound = "CC(=O)N1/C(=C\\c2cc(-c3cccc4ccccc34)c3cc(C(=O)O)ccc3n2)C(=O)c2ccccc21 [Example 153]"
measured_endpoint = "inhibition at 1 µM"
value_measured = 63.1

[[record]]
compound = "CC(=O)N1/C(=C\\c2cc(-c3nccn3C)c3cc(C(=O)N4CCOCC4)ccc3n2)C(=O)c2ccccc21 [Example 180]"
measured_endpoint = "inhibition at 1 µM"
value_measured = 43.7

[[record]]
compound = "CC(=O)N1/C(=C\\c2cc(-c3cccc(-c4ccccc4)c3)c3cc(C(=O)N4CCN(C5COC5)CC4)ccc3n2)C(=O)c2ccccc21 [Example 158]"
measured_endpoint = "inhibition at 1 µM"
value_measured = 59.2


###

# Tested on: acute lymphoblastic leukemia cells CCRF-CEM (K-RasG12D)
# test: Cell growth inhibition, suspension cells CCRF-CEM
# Type: cell-based
# conditions-used: Homo sapiens, 1 μM, 72 hours, read-out: CCRF-CEM (KRasG12D) % inhibition at 1 μM
measured-endpoint: inhibition at 1 µM (%)
Express it in %; write the number only.

Worked examples, 2 molecules total:
[[record]]
smiles_str = "COc1cc(/C=C2/C(=O)c3ccccc3N2C(C)=O)ccc1OCS(C)(=O)=O"
study_target = "acute lymphoblastic leukemia cells CCRF-CEM (K-RasG12D)"
value_measured = 88

[[record]]
smiles_str = "CC(=O)N1/C(=C\\c2ccc3cc(CO)ccc3n2)C(=O)c2ccccc21"
study_target = "acute lymphoblastic leukemia cells CCRF-CEM (K-RasG12D)"
value_measured = 94


Return inhibition at 1 µM for the following molecule: COc1cc(/C=C2/C(=O)c3ccccc3N2C(C)=O)ccc1OS(C)(=O)=O
97

Determine its reported inhibition at 1 µM: CC(=O)N1/C(=C\c2ccc(OS(C)(=O)=O)cn2)C(=O)c2ccccc21
35

Please supply the value of reported inhibition at 1 µM for the item CC(=O)N1/C(=C/c2nc3ccc(C(=O)N4CCOCC4)cc3s2)C(=O)c2ccccc21
45

Specify reported inhibition at 1 µM for the molecule shown: CC(=O)N1/C(=C\c2nc3cc(C(=O)N4CCOCC4)ccc3s2)C(=O)c2ccccc21
74

Annotate the molecule CC(=O)N1/C(=C/c2nc3cc(C(=O)N4CCOCC4)ccc3s2)C(=O)c2ccccc21 with its measured inhibition at 1 µM.
69

Please give measured inhibition at 1 µM of the following entry: CC(=O)N1/C(=C\c2nc3cc(CNC4CCOCC4)ccc3s2)C(=O)c2ccccc21
38

###

# study-target: GTPγS-bound human HRasG12V / human c-Raf-1 Ras binding domain (RBD) (Homo sapiens (Human), UniProt P01112, G12V)
# test: Ras-Raf binding inhibition ELISA
# conditions-used: anti-HRas antibody C-20; read-out: ELISA IC50 (μM): 1st Ab_C-20
measured-endpoint: IC50 (µM)

[[record]]
molecule = "CC(=O)N1/C(=C\\c2ccc(OS(C)(=O)=O)cn2)C(=O)c2ccccc21"
value_measured = 2.7

[[record]]
molecule = "CC(=O)N1/C(=C\\c2ccc3cc(CN(C)C4CCOCC4)ccc3n2)C(=O)c2ccccc21"
value_measured = 2.4

[[record]]
molecule = "CC(=O)N1/C(=C\\c2cc(-c3cnccn3)c3cc(C(=O)N4CCOCC4)ccc3n2)C(=O)c2ccccc21"
value_measured = 0.9

[[record]]
molecule = "CC(=O)N1/C(=C\\c2ccc(C(=O)N3CCOCC3)cn2)C(=O)c2ccccc21"
value_measured = 14

[[record]]
molecule = "CC(=O)N1/C(=C\\c2cc(-c3cn[nH]c3)c3cc(C(=O)N4CCOCC4)ccc3n2)C(=O)c2ccccc21"
value_measured = 0.5


P. CC(=O)N1C(=Cc2cc(-c3ccc4c(c3)CCNC4=O)c3cc(C(=O)N4CCOCC4)ccc3n2)C(=O)c2ccccc21 (racemic)
Q. CC(=O)N1/C(=C\c2cc(-c3ccc(-c4ccccc4)cc3)c3cc(CNC4CCOCC4)ccc3n2)C(=O)c2ccccc21
R. CC(=O)N1/C(=C\c2ccc3c(-c4cccc5ccccc45)c(C(=O)N4CCOCC4)ccc3n2)C(=O)c2ccccc21
S. CC(=O)N1/C(=C\c2ccc(OCC(=O)N3CCOCC3)c(F)n2)C(=O)c2ccccc21
hey, can you rank those molecules up there by IC50? biggest number first please List the labels, following the order given in the request.
S, Q, R, P

###

# study-target: GTPγS-bound human HRasG12V / human c-Raf-1 Ras binding domain (RBD) (Homo sapiens (Human), UniProt P01112, G12V)
# test: Ras-Raf binding inhibition ELISA
measured-endpoint: inhibition at 1 µM (%)

[[record]]
smiles_str = "CC(=O)N1/C(=C\\c2cc(-c3cnn(C)c3)c3cc(C(=O)N4CCOCC4)ccc3n2)C(=O)c2ccccc21"
unit_of_measurement = "%"
value_measured = 72

[[record]]
smiles_str = "CC(=O)N1/C(=C\\c2cc(-c3cn[nH]c3)c3cc(C(=O)N4CCOCC4)ccc3n2)C(=O)c2ccccc21"
unit_of_measurement = "%"
value_measured = 66.8

[[record]]
smiles_str = "CC(=O)N1/C(=C\\c2cc(-c3ccc(-c4ccccc4)cc3)c3cc(C(=O)O)ccc3n2)C(=O)c2ccccc21"
unit_of_measurement = "%"
value_measured = 52

[[record]]
smiles_str = "CC(=O)N1/C(=C\\c2cc(-c3cccc4cccnc34)c3cc(C(=O)O)ccc3n2)C(=O)c2ccccc21"
unit_of_measurement = "%"
value_measured = 59.3

